Each recorded value in this set is attributed to patent US20140056903A1.

# Test System: T1, human GFRα3 expressed with a C-terminal myc-myc-hexahistidine tag (human, UniProt O60609 32-374, biotinylated (sites not given) in ELISA format 2 and in the Octet cross-competition; not in SPR)
# T1 construct: also called hGFRα3-mmh; hGFRα3-mmH
# T1 sequence (O60609 other isoform, or with tags, fused parts or gaps limits assumed): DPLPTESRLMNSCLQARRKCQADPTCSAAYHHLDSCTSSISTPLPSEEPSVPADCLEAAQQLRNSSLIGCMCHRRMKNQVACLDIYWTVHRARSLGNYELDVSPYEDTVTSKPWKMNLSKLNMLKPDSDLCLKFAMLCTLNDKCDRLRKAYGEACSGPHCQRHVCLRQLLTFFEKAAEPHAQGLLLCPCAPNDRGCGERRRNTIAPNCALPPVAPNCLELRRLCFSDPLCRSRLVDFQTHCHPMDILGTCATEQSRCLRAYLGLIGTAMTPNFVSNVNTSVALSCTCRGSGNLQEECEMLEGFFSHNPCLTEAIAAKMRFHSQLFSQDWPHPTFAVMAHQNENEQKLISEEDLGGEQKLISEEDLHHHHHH
# Measurement Description: SPR, Ab captured, 37C
Please provide measured t1/2 for the entries that follow.
Answers are plain numbers, in min.

Okay, here is my list. What is t1/2 for each of these?
1. H4H2350P (antibody, human IgG4, V domains shown, human IgG4 Fc (H4H)) VH: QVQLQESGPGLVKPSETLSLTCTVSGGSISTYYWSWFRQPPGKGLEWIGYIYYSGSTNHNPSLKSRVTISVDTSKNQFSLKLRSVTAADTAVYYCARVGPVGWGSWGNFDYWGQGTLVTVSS VL: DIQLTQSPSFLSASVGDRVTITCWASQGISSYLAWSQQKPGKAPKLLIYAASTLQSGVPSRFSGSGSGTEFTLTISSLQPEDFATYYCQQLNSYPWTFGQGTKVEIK
2. H1M2236N (antibody, V domains shown, chimeric, human variable and mouse constant domains (H1M)) VH: EVQLLESGGNLVQPGGSLRLSCAASGFTFSSYAMTWVRQAPGKGLEWVSTISGSGTSTYYADSVKGRFTISRDNSRDTVFLQMNSLRAEDTAVYYCSKPSALRFLHWLCMDVWGQGTLVTVSS VL: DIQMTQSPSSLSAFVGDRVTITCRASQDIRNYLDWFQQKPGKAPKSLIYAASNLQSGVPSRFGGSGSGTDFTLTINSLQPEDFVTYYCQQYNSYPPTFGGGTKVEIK
3. H4H2342P (antibody, human IgG4, V domains shown, human IgG4 Fc (H4H)) VH: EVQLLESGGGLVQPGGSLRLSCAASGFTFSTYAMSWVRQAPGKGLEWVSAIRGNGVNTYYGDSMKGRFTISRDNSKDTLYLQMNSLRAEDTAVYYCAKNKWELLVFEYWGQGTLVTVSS VL: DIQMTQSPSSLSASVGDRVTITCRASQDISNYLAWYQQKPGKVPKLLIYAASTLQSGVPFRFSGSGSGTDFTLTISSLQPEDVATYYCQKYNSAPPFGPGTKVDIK
4. H4H2294S (antibody, human IgG4, V domains shown, human IgG4 Fc (H4H)) VH: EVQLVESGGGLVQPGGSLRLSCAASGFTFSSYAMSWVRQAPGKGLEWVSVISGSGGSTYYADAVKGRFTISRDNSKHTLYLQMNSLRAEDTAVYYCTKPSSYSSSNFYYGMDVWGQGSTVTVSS VL: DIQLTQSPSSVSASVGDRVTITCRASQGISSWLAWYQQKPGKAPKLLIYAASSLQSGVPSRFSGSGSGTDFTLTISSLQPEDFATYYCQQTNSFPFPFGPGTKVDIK
5. H4H2354S (antibody, human IgG4, V domains shown, human IgG4 Fc (H4H); also called H4H2354S-1) VH: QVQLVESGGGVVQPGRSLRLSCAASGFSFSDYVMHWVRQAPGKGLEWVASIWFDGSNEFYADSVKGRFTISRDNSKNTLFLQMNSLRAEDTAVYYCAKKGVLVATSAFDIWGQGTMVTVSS VL: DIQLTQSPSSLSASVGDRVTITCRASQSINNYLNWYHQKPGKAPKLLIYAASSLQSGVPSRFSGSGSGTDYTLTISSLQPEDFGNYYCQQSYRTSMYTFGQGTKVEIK
6. H4H2295S (antibody, human IgG4, V domains shown, human IgG4 Fc (H4H)) VH: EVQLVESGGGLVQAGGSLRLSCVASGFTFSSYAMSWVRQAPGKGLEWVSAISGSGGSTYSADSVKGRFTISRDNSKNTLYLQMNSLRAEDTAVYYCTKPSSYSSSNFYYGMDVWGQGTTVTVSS VL: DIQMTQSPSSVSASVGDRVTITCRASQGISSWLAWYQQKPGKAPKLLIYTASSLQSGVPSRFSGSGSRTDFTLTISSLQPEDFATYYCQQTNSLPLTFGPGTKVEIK
7. H4H2293P (antibody, human IgG4, V domains shown, human IgG4 Fc (H4H)) VH: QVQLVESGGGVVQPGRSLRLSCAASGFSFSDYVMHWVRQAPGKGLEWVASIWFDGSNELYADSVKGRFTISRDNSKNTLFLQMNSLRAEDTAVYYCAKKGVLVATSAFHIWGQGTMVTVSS VL: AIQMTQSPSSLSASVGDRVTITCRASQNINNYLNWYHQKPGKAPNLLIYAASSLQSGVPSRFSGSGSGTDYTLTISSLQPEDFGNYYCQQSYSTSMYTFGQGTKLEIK
8. H4H2243N2 (antibody, human IgG4, V domains shown, human IgG4 Fc (H4H)) VH: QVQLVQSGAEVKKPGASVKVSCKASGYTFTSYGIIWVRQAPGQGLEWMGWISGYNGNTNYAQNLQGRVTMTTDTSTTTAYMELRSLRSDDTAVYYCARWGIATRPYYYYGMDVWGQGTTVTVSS VL: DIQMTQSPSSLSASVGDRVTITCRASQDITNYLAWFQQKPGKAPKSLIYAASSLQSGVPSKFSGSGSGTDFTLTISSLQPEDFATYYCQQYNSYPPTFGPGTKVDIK

## Output
1: 9; 2: 21; 3: 17; 4: 44; 5: 18; 6: 10; 7: 47; 8: 5

Okay, here is my list. What is t1/2 for each of these?
1. H4H2364S (antibody, human IgG4, V domains shown, human IgG4 Fc (H4H)) VH: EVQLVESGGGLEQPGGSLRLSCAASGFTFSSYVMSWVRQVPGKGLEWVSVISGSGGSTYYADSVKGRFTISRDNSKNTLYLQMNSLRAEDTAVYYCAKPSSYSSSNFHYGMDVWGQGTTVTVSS VL: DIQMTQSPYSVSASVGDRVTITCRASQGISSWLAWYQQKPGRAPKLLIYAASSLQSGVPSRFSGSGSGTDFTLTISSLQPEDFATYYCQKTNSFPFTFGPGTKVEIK
2. H4H2352S (antibody, human IgG4, V domains shown, human IgG4 Fc (H4H); also called H4H2352S-1) VH: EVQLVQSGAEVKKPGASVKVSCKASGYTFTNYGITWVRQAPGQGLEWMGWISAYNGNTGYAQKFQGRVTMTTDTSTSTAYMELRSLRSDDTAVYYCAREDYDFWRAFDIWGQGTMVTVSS VL: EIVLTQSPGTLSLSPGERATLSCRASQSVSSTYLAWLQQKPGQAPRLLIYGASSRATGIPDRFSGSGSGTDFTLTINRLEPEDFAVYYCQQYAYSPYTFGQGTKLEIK

## Output
1: 42; 2: 83
